- ASSAY_NOTES: Kinetic solubility in water and bio-relevant media (SGF, FaSSIF, FeSSIF) at 37° C.
- Type: physicochemical
- TEST_CONDITIONS: SGF, 37° C., 4 hrs; calculated by freeform
Counter-ions that a name gives are not always drawn.
ASSAY_ENDPOINT: S: Solubility (mg/mL)
# unit: mg/mL | format: bare number

Input line: Return reported S: Solubility; argument: N#Cc1ccc(COc2cccc(C3CCN(Cc4nc5ccc(C(=O)O)cc5n4Cc4cncs4)CC3)n2)c(F)c1 [Meglumine salt Type A]
Output line: 0.68

Input line: What value of measured S: Solubility is listed for N#Cc1ccc(COc2cccc(C3CCN(Cc4nc5ccc(C(=O)O)cc5n4Cc4cncs4)CC3)n2)c(F)c1 [Freeform Type C] ?
Output line: 0.075

Input line: Given N#Cc1ccc(COc2cccc(C3CCN(Cc4nc5ccc(C(=O)O)cc5n4Cc4cncs4)CC3)n2)c(F)c1 [Potassium salt Type A] , state its recorded S: Solubility.
Output line: 0.039

###

- ASSAY_NOTES: Kinetic solubility in water and bio-relevant media (SGF, FaSSIF, FeSSIF) at 37° C.
- Assay type: physicochemical
- TEST_CONDITIONS: FeSSIF, 37 °C, pH 5, fessif, thermodynamic from solid, FeSSIF, 37° C., at 24 hrs; read-out: solubility in FeSSIF
Where a name gives a salt, the structure may show the parent alone.
ASSAY_ENDPOINT: solubility at 24 h (µg/mL)
Entry rule: numbers only, all in µg/mL.

Input line: # solubility at 24 h lookup, item N#Cc1ccc(COc2cccc(C3CCN(Cc4nc5ccc(C(=O)O)cc5n4Cc4cncs4)CC3)n2)c(F)c1 [Tris salt Type C]
Output line: 140

###

- ASSAY_NOTES: Hygroscopicity by DVS at 25° C.
- Format: physicochemical
- TEST_CONDITIONS: DVS, 25° C./80% RH
Structures can show the parent of a compound that is named as a salt.
I'd be grateful if you could share measured Water uptake at 25° C./80% RH for these entries.
Write down the numeric answer in wt % and omit the unit.

Input line: // lookup Water uptake at 25° C./80% RH for N#Cc1ccc(COc2cccc(C3CCN(Cc4nc5ccc(C(=O)O)cc5n4Cc4cncs4)CC3)n2)c(F)c1 [Tris salt Type C]
Output line: 1.44

Input line: Any idea what Water uptake at 25° C./80% RH was measured for N#Cc1ccc(COc2cccc(C3CCN(Cc4nc5ccc(C(=O)O)cc5n4Cc4cncs4)CC3)n2)c(F)c1 [Freeform Type C] ?
Output line: 0.12

Input line: Requested read-out: Water uptake at 25° C./80% RH. Entry: N#Cc1ccc(COc2cccc(C3CCN(Cc4nc5ccc(C(=O)O)cc5n4Cc4cncs4)CC3)n2)c(F)c1 [Potassium salt Type A]
Output line: 0.62

Input line: Record request: Water uptake at 25° C./80% RH value, item N#Cc1ccc(COc2cccc(C3CCN(Cc4nc5ccc(C(=O)O)cc5n4Cc4cncs4)CC3)n2)c(F)c1 [Fumarate Type A]
Output line: 0.12

Input line: Quick one: Water uptake at 25° C./80% RH of N#Cc1ccc(COc2cccc(C3CCN(Cc4nc5ccc(C(=O)O)cc5n4Cc4cncs4)CC3)n2)c(F)c1 [Meglumine salt Type A] ?
Output line: 1.43

###

- ASSAY_NOTES: Kinetic solubility in water and bio-relevant media (SGF, FaSSIF, FeSSIF) at 37° C.
- Type: physicochemical
- TEST_CONDITIONS: water, 37 °C, thermodynamic from solid, H2O, at 1, 2 and 4 hrs
Where a name gives a salt, the structure may show the parent alone.
ASSAY_ENDPOINT: solubility

Input line: Can you share its solubility? I mean this compound: N#Cc1ccc(COc2cccc(C3CCN(Cc4nc5ccc(C(=O)O)cc5n4Cc4cncs4)CC3)n2)c(F)c1 [Meglumine salt Type A]
Output line: > 8300 µg/mL

###

- ASSAY_NOTES: Kinetic solubility in water and bio-relevant media (SGF, FaSSIF, FeSSIF) at 37° C.
- Assay type: physicochemical
- TEST_CONDITIONS: H2O, 37° C., 2 hrs; residual solids by XRPD
Structures can show the parent of a compound that is named as a salt.
ASSAY_ENDPOINT: FC: Form change

# COMPOUND, RESULT
rows = [
    ("N#Cc1ccc(COc2cccc(C3CCN(Cc4nc5ccc(C(=O)O)cc5n4Cc4cncs4)CC3)n2)c(F)c1 [Freeform Type C]", "No"),
    ("N#Cc1ccc(COc2cccc(C3CCN(Cc4nc5ccc(C(=O)O)cc5n4Cc4cncs4)CC3)n2)c(F)c1 [Potassium salt Type A]", "Yes"),
    ("N#Cc1ccc(COc2cccc(C3CCN(Cc4nc5ccc(C(=O)O)cc5n4Cc4cncs4)CC3)n2)c(F)c1 [Tris salt Type C]", "Yes"),
    ("N#Cc1ccc(COc2cccc(C3CCN(Cc4nc5ccc(C(=O)O)cc5n4Cc4cncs4)CC3)n2)c(F)c1 [Fumarate Type A]", "No"),
]

###

- ASSAY_NOTES: Kinetic solubility in water and bio-relevant media (SGF, FaSSIF, FeSSIF) at 37° C.
- Type: physicochemical
- TEST_CONDITIONS: FaSSIF, 37° C., 1 hr; calculated by freeform
Structures can show the parent of a compound that is named as a salt.
ASSAY_ENDPOINT: S: Solubility (µg/mL)
Reply with just the number (in µg/mL).

Input line: Fill in: S: Solubility of N#Cc1ccc(COc2cccc(C3CCN(Cc4nc5ccc(C(=O)O)cc5n4Cc4cncs4)CC3)n2)c(F)c1 [Tris salt Type C] is ___
Output line: 160

Input line: Bench note: what S: Solubility did N#Cc1ccc(COc2cccc(C3CCN(Cc4nc5ccc(C(=O)O)cc5n4Cc4cncs4)CC3)n2)c(F)c1 [Freeform Type C] show?
Output line: 2

Input line: Value lookup for S: Solubility; key = N#Cc1ccc(COc2cccc(C3CCN(Cc4nc5ccc(C(=O)O)cc5n4Cc4cncs4)CC3)n2)c(F)c1 [Meglumine salt Type A]
Output line: 900

Input line: Entry under review: N#Cc1ccc(COc2cccc(C3CCN(Cc4nc5ccc(C(=O)O)cc5n4Cc4cncs4)CC3)n2)c(F)c1 [Potassium salt Type A] . Reported S: Solubility?
Output line: 24

Measured values drawn from patent US20240360122A1 for this set.
